Molecular target: Protein kinase C alpha type (Homo sapiens, UniProt P17252)
Assay: Displacement of [3H]PDBU from protein kinase C-alpha
Give pKi for every item shown.
API: returns pKi as number; meaning -log10 of concentration in mol/L.

Documented pKi of CC1=CC23C(=O)[C@@H](C=C(CO)[C@@H](O)[C@]2(O)[C@H]1OC(=O)c1ccccc1)[C@H]1[C@@H](C[C@H]3C)C1(C)C : 9.85

Looking up O=C(O[C@H]1CCC23CCCC[C@H](C=C(CO)C[C@H]12)C3=O)c1ccccc1 , I see its pKi listed as 6.78

###

Target: Protein kinase C alpha type (Homo sapiens)
Assay: Displacement of [3H]-PDBU from protein kinase C-alpha
Would you mind telling me the reported pKi of each entry?
Answer as the number alone; pKi is minus log10 of concentration in mol/L.

So, CC1=CC23C(=O)[C@@H](C=C(CO)[C@@H](O)[C@]2(O)[C@H]1O)[C@H]1[C@@H](C[C@H]3C)C1(C)C ? Its pKi was 6.62

Looking up CCCCC(=O)O[C@@H]1[C@@H](C)[C@@]2(O)[C@@H](C=C(CO)C[C@]3(O)C(=O)C(C)=C[C@@H]23)[C@@H]2C(C)(C)[C@]12OC(=O)CCCC , I found its pKi recorded as 9.27
